These measurements were taken from ChEMBL document CHEMBL1144400.

# target or system: Coagulation factor X (Homo sapiens)
# Sequence (P00742 41-179 limits assumed): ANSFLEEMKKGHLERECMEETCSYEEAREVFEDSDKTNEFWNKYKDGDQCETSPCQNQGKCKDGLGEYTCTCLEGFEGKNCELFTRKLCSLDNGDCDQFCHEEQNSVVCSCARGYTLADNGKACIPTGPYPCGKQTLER
# Sequence (P00742 235-488 limits assumed): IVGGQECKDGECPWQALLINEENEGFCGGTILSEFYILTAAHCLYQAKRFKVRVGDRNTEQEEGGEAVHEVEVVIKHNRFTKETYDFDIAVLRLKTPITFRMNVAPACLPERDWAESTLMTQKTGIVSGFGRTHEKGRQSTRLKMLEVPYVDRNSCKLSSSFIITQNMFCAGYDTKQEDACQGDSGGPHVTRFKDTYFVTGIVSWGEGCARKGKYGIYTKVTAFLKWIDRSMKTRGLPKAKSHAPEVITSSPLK
pKi: −log10 of the molar value.
Rule: pKi under 9 gives 0.0, otherwise 1.0.

{"columns": ["smiles repr", "label"],
 "data": [
  ["Cc1cccc2c(C#N)c(C(=O)NC3CCN(C(C)C)CC3)n(Cc3cc(-c4ccc(Cl)s4)on3)c12", 1.0],
  ["Cc1c(C(=O)NC2CCN(C(C)C)CC2)n(Cc2cc(-c3ccc(Cl)s3)on2)c2ccccc12", 0.0],
  ["Cc1cccc2cc(C(=O)NC3CCN(C(C)C)CC3)n(CC(=O)Nc3ccc(Cl)cc3)c12", 0.0],
  ["CC(C)N1CCC(NC(=O)c2c(C#N)c3ccccc3n2Cc2cc(-c3ccc(Cl)s3)on2)CC1", 1.0],
  ["CC(C)N1CCC(NC(=O)c2cc3c(Cl)cccc3n2Cc2cc(-c3ccc(Cl)s3)on2)CC1", 0.0]
]}
